target: human GnRH receptor (Homo sapiens, UniProt P30968); construct: expressed in transfected cells; host or cells: CHO (Chinese Hamster Ovary) cells, membrane fraction; experiment: Test for inhibition of ^125 I-leuprorelin binding to human GnRH receptor; conditions: membrane fraction of CHO cells expressing human GnRH receptors, 25° C., 60 minutes, read-out: Binding Inhibitory Activity (IC50, μM) for human GnRH receptor
Sequence (P30968 whole entry): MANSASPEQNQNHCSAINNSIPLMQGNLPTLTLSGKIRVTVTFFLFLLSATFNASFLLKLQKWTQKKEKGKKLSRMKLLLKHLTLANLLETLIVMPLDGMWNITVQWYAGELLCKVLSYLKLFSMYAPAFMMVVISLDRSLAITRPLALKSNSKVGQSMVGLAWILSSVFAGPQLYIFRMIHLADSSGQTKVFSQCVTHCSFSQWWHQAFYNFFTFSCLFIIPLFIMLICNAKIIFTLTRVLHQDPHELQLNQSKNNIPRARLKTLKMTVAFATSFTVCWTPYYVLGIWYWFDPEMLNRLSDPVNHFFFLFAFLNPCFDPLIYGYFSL
measured_parameter: IC50 (µM)
Write the answer as a number in µM, unit excluded.

Example cases with answers are listed next.
{"columns": ["compound", "measure_unit", "IC50"],
 "data": [
  ["COC(=O)c1ccc2c(c1)C(=O)N(CC(=O)N1c3ccccc3N(Cc3ccccc3)C(=O)[C@H]3CCC[C@H]31)C2=O (relative stereo) [compound 108]", "µM", 8],
  ["O=C1C2CCCCC2C(=O)N1CC(=O)N1c2ccccc2N(Cc2ccccc2)C(=O)[C@H]2CCC[C@H]21 (stereo partly drawn) [compound 175]", "µM", 1],
  ["O=C1c2ccccc2C(=O)N1CC(=O)N1c2ccccc2N(Cc2cccc3ccccc23)C(=O)[C@H]2CCC[C@H]21 (relative stereo) [compound 113]", "µM", 1],
  ["O=C1c2ccc(Cl)cc2C(=O)N1CC(=O)N1c2ccccc2N(Cc2ccccc2)C(=O)[C@H]2CCC[C@H]21 (relative stereo) [compound 69]", "µM", 2],
  ["O=C1c2ccccc2C(=O)N1CCCC(=O)N1c2ccccc2N(Cc2ccccc2)C(=O)[C@H]2CCC[C@H]21 (relative stereo) [compound 51]", "µM", 12]
]}

Read the next record carefully.
Q) # IC50 lookup, item Cc1ccc2c(c1)C(=O)N(CC(=O)N1c3ccccc3N(Cc3ccccc3)C(=O)[C@H]3CCC[C@H]31)C2=O (relative stereo) [compound 71]
A) 9
